experiment: Chemical stability in MV-4-11 medium; details: 37° C., concentration 10 μM

- compound: "Nc1cccc2c1CN(C1CCC(=O)NC1=O)C2=O (stereo not shown) [lenalidomide]"
  % remaining at 24 hrs: "e (e<5%)"
- compound: "Nc1cccc2c1C(=O)N(C1CCC(=O)NC1=O)C2=O (stereo not shown) [pomalidomide]"
  % remaining at 24 hrs: "e (e<5%)"

====

target: CRBN/DDB1 protein complex (Homo sapiens); experiment: CRBN displacement TR-FRET assay; conditions: Thalidomide-Red tracer, 6×His-CRBN/DDB1; read-out: CRBN binding Ki
Sequence (Q96SW2 whole entry, species assumed): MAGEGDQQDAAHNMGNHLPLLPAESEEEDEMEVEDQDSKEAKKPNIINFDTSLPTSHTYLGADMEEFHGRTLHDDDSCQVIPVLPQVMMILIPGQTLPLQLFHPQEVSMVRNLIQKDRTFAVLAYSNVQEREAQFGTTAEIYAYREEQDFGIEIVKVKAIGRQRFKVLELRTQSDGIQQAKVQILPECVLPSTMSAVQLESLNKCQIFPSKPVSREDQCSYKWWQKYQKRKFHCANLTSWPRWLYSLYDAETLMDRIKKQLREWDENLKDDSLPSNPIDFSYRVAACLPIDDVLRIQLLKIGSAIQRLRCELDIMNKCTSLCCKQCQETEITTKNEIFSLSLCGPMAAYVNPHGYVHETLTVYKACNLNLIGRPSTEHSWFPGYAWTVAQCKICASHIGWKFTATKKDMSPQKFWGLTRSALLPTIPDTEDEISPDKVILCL
Sequence (Q16531 whole entry partner, species assumed): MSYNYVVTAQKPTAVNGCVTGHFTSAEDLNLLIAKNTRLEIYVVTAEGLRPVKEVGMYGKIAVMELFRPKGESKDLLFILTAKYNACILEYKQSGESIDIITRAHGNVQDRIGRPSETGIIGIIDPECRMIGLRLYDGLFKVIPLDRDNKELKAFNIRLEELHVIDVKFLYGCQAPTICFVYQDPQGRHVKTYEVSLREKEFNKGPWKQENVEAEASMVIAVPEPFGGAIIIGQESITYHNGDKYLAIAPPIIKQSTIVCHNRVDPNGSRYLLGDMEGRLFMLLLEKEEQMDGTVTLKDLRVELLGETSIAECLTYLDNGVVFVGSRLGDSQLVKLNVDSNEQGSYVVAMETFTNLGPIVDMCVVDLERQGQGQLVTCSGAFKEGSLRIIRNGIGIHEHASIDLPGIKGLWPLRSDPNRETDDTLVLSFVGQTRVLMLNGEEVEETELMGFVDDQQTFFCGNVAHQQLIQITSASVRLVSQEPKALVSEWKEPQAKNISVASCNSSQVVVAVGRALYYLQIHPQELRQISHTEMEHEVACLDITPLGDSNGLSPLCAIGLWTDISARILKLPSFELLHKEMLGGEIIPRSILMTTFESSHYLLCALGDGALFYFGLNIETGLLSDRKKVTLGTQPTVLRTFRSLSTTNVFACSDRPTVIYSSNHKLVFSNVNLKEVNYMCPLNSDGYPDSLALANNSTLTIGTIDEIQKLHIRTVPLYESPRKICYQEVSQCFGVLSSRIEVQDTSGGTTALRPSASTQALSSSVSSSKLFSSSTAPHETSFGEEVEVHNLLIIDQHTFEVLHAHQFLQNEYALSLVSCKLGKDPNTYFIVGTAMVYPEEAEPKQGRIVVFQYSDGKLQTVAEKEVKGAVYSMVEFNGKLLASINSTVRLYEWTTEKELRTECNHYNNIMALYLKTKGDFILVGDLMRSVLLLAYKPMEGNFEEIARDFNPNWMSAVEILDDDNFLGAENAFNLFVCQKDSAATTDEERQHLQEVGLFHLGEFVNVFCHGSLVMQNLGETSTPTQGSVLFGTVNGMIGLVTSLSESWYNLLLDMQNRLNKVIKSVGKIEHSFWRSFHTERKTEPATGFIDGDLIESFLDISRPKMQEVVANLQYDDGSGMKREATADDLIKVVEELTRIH
Could you please report measured Ki for the items listed next?

Reference set (7 entries):
- compound: "Cc1nc2ccc(COC(=O)Nc3cc(C(C)(C)C)no3)cc2cc1N1CCC(=O)NC1=O"
  Ki: "< 0.5 µM"
- compound: "Cc1nc2cc(COC(=O)Nc3nc(C(C)(C)C)no3)ccc2cc1C1CCC(=O)NC1=O (centres unmarked)"
  Ki: "0.5 to 1 µM"
- compound: "Cc1ccc(NC(=O)OCc2ccc3cc(N4CCC(=O)NC4=O)c(C)nc3c2)cc1Cl"
  Ki: "0.5 to 1 µM"
- compound: "COc1ccc(NC(=O)OCc2ccc3cc(C4CCC(=O)NC4=O)c(C)nc3c2)nn1 (centres unmarked)"
  Ki: "> 1 µM"
- compound: "COc1ccc(NC(=O)OCc2ccc3cc(C4CCC(=O)NC4=O)c(C)nc3c2)cc1Cl (centres unmarked)"
  Ki: "> 1 µM"
- compound: "Cc1nc2cc(COC(=O)Nc3cc(OC(F)(F)F)ccc3F)ccc2cc1C1CCC(=O)NC1=O (centres unmarked)"
  Ki: "> 1 µM"
- compound: "Cc1ccc(NC(=O)OCc2ccc3cc(C4CCC(=O)NC4=O)c(C)nc3c2F)cc1Cl (centres unmarked)"
  Ki: "0.5 to 1 µM"

Asked: Please report the recorded Ki for Cc1nc2cc(COC(=O)Nc3ccc(C(C)(C)C)cc3)ccc2cc1C1CCC(=O)NC1=O (centres unmarked) .
Given back: < 0.5 µM

====

target: [IKZF1 ZF2]-[compound]-[CRBN/DDB1] ternary complex (Homo sapiens, UniProt Q13422+Q96SW2); construct: IKZF1 ZF2; test: AlphaLISA assay for off-target recruitment detection, IKZF1 ZF2; type: binding; settings: 1 μM compound; normalized to Lenalidomide; read-out: Normalized ternary complex response, IKZF1 ZF2
Sequence (Q13422 145-167 limits assumed, one chain of several): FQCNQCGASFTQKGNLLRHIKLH
parameter.measured: activation at 1 µM

Consider the following illustrative entries.
- compound: "Cc1nc2ccc(CNC(=O)C(=O)c3ccc(C(C)(C)C)cc3)cc2cc1C1CCC(=O)NC1=O (stereo not shown)"
  endpoint.result: "25 to 50%"
- compound: "Cc1ccc(NC(=O)OCc2ccc3nc(C)c(C4CCC(=O)NC4=O)cc3c2)cc1Cl (stereo not shown)"
  endpoint.result: "25 to 50%"
- compound: "Cc1nc2cc(CNC(=O)Nc3cc(C(C)(C)C)no3)ccc2cc1N1CCC(=O)NC1=O"
  endpoint.result: "< 10%"
- compound: "Cc1nc2cc(COC(=O)Nc3cc(Cl)c(C)c(CN4CCOCC4)c3)ccc2cc1C1CCC(=O)NC1=O (stereo not shown)"
  endpoint.result: "< 10%"
- compound: "Cc1nc2ccc(COC(=O)Nc3cc(C(C)(C)C)no3)cc2cc1N1CCC(=O)NC1=O"
  endpoint.result: "25 to 50%"
- compound: "Cc1nc2cc(COC(=O)Nc3ccc(C(C)(C)C)c(Cl)c3)ccc2cc1C1CCC(=O)NC1=O (stereo not shown)"
  endpoint.result: "< 10%"
- compound: "Cc1nc2ccc(CNC(=O)C(=O)N3CCC(C(C)(C)C)CC3)cc2cc1C1CCC(=O)NC1=O (stereo not shown)"
  endpoint.result: "< 10%"
- compound: "Cc1nc2cc(COC(=O)Nc3ccc(Cl)c(Cl)c3)ccc2cc1C1CCC(=O)NC1=O (stereo not shown)"
  endpoint.result: "< 10%"

# batch: return activation at 1 µM for each of the 7 compounds below
1. Cc1ccc(NC(=O)OCc2cc3nc(C)c(C4CCC(=O)NC4=O)cc3cc2C)cc1Cl (stereo not shown)
2. Cc1ccc(NC(=O)OCc2cc3nc(C)c(C4CCC(=O)NC4=O)cc3cc2F)cc1Cl (stereo not shown)
3. Cc1nc2ccc(COC(=O)NC3CCCCC3)cc2cc1N1CCC(=O)NC1=O
4. Cc1ncc(NC(=O)OCc2ccc3cc(C4CCC(=O)NC4=O)c(C)nc3c2)cc1Cl (stereo not shown)
5. Cc1nc2cc(COC(=O)Nc3cc(C4(C(F)(F)F)CC4)no3)ccc2cc1C1CCC(=O)NC1=O (stereo not shown)
6. Cc1ccc(NC(=O)NCc2ccc3nc(C)c(N4CCC(=O)NC4=O)cc3c2)cc1Cl
7. Cc1nc2cc(COC(=O)Nc3cccc(C(C)(C)C)c3)ccc2cc1C1CCC(=O)NC1=O (stereo not shown)

Given back:
["< 10%", "< 10%", "10 to 25%", "< 10%", "< 10%", "25 to 50%", "< 10%"]

Asked: I am curious: what activation at 1 µM value has been reported for Cc1nc2cc(COC(=O)Nc3ccc(C(F)(F)F)c(Cl)c3)ccc2cc1C1CCC(=O)NC1=O (stereo not shown) ?
Given back: < 10%

====

biological target: GSPT1-HiBiT protein in GSPT1-HiBiT HEK293 cells (Homo sapiens, UniProt P15170+Q96SW2); construct: endogenous in cells; host or cells: HEK293 (CRISPR/Cas9 knock-in of HiBiT at the GSPT1 locus); test: GSPT1 degradation assay using HiBiT system (Nano-Glo HiBiT lytic assay); assay type: cell-based; settings: 6 hours treatment, read-out: HiBiT lytic assay Geomean absolute DC50
Sequence (P15170 whole entry): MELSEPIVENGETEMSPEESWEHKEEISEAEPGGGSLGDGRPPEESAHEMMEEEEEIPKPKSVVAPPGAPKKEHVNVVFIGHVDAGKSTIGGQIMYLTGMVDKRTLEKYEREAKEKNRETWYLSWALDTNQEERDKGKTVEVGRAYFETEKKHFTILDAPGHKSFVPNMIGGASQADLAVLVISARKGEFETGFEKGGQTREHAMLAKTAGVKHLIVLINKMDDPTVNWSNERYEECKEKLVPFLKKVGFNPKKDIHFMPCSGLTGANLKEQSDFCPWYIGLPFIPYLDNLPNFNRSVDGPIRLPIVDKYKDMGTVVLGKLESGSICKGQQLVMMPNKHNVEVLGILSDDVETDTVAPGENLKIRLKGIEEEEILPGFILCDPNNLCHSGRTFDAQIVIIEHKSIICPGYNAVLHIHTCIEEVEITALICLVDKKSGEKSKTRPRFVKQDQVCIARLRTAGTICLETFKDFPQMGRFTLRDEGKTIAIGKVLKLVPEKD
Sequence (Q96SW2 whole entry): as the sequence (Q96SW2 whole entry, species assumed) above
Sequence (Q16531 whole entry partner): as the sequence (Q16531 whole entry partner, species assumed) above
parameter.measured: DC50

Here are 5 molecules together with their reported answers.
- molecule: "Cc1nc2ccc(COC(=O)Nc3cc(C(C)(C)C)no3)cc2cc1N1CCC(=O)NC1=O [Compound 66]"
  DC50: "10 to 50 nM"
- molecule: "Cc1nc2cc(COC(=O)Nc3cc(C(F)(F)F)no3)ccc2cc1C1CCC(=O)NC1=O (centres unmarked) [Compound 71]"
  DC50: "50 to 100 nM"
- molecule: "Cc1ccc(NC(=O)OCc2ccc3cc([C@@H]4CCC(=O)NC4=O)c(C)nc3c2)cc1Cl [Compound 38]"
  DC50: "50 to 100 nM"
- molecule: "Cc1nc2cc(COC(=O)Nc3cc(C(F)(F)F)n[nH]3)ccc2cc1C1CCC(=O)NC1=O (centres unmarked) [Compound 69]"
  DC50: "10 to 50 nM"
- molecule: "Cc1nc2cc(COC(=O)Nc3ccc4c(c3)OCCO4)ccc2cc1C1CCC(=O)NC1=O (centres unmarked) [Compound 15]"
  DC50: "< 10 nM"

Each of the following entries comes with a recorded value; kindly state DC50 for each.
1. Cc1nc2cc(COC(=O)Nc3cc(OC(F)(F)F)ccc3F)ccc2cc1C1CCC(=O)NC1=O (centres unmarked) [Compound 6]
2. COc1ccc(NC(=O)OCc2ccc3cc(C4CCC(=O)NC4=O)c(C)nc3c2)nn1 (centres unmarked) [Compound 45]
3. Cc1ccc(NC(=O)OCc2ccc3cc(C4(F)CCC(=O)NC4=O)c(C)nc3c2)cc1Cl (centres unmarked) [Compound 74]
4. Cc1nc2cc(COC(=O)Nc3ccc(C(C)(C)C)cc3)ccc2cc1C1CCC(=O)NC1=O (centres unmarked) [Compound 8]
5. Cc1ccc(NC(=O)OCc2ccc3cc([C@H]4CCC(=O)NC4=O)c(C)nc3c2)cc1Cl [Compound 39]
6. Cc1nc2cc(COC(=O)Nc3csc(-c4ccccc4)c3)ccc2cc1C1CCC(=O)NC1=O (centres unmarked) [Compound 37]
7. Cc1nc2cc(COC(=O)Nc3ccc(C(C)(C)C)c(Cl)c3)ccc2cc1C1CCC(=O)NC1=O (centres unmarked) [Compound 10]
8. Cc1nc2cc(COC(=O)Nc3ccc4c(c3)OCO4)ccc2cc1C1CCC(=O)NC1=O (centres unmarked) [Compound 14]

Given back:
10 to 50 nM
10 to 50 nM
> 100 nM
< 10 nM
< 10 nM
10 to 50 nM
< 10 nM
10 to 50 nM

Asked: # returns recorded DC50 (system: GSPT1-HiBiT protein in GSPT1-HiBiT HEK293 cells (Homo sapiens, UniProt P15170+Q96SW2)) for Cc1nc2cc(COC(=O)Nc3cc(C(C)(C)C)on3)ccc2cc1C1CCC(=O)NC1=O (centres unmarked) [Compound 70]
Given back: < 10 nM

====

biological target: [GSPT1]-[compound of formula (I)]-[CRBN/DDB1] complex (Homo sapiens, UniProt P15170+Q96SW2); assay: HTRF ternary complex assay (GSPT1); assay type: binding; conditions: read-out: HTRF ternary complex Average pEC50 by molecule (converted)
Sequence (P15170 whole entry): as the sequence (P15170 whole entry) above
Sequence (Q96SW2 whole entry): as the sequence (Q96SW2 whole entry, species assumed) above
Sequence (Q16531 whole entry partner): as the sequence (Q16531 whole entry partner, species assumed) above
parameter.measured: EC50

See these solved cases before continuing.
- molecule: "[2H]C([2H])(OC(=O)Nc1cc(C(C)(C)C)no1)c1ccc2cc(C3CCC(=O)NC3=O)c(C)nc2c1 (centres unmarked)"
  parameter.measured: "EC50"
  endpoint.result: "< 0.316 µM"
- molecule: "Cc1nc2cc(CNC(=O)Nc3cc(C(C)(C)C)no3)ccc2cc1N1CCC(=O)NC1=O"
  parameter.measured: "EC50"
  endpoint.result: "< 0.316 µM"
- molecule: "Cc1nc2ccc(COC(=O)Nc3cc(OC(F)(F)F)ccc3F)cc2cc1C1CCC(=O)NC1=O (centres unmarked)"
  parameter.measured: "EC50"
  endpoint.result: "> 3.16 µM"
- molecule: "COc1ccc(NC(=O)OCc2ccc3cc(C4CCC(=O)NC4=O)c(C)nc3c2)cc1Cl (centres unmarked)"
  parameter.measured: "EC50"
  endpoint.result: "0.316 to 3.16 µM"

Look at each molecule and report its EC50.
1. Cc1ccc(NC(=O)OCc2ccc3cc(C4CCC(=O)NC4=O)c(C)nc3c2)cc1Cl (centres unmarked)
2. Cc1nc2ccc(CNC(=O)C(=O)N3CCC(C(C)(C)C)CC3)cc2cc1C1CCC(=O)NC1=O (centres unmarked)
3. Cc1ccc(NC(=O)OCc2cc3nc(C)c(C4CCC(=O)NC4=O)cc3cc2F)cc1Cl (centres unmarked)
4. Cc1nc2cc(COC(=O)Nc3ccc(C(F)(F)F)c(Cl)c3)ccc2cc1C1CCC(=O)NC1=O (centres unmarked)
5. Cc1ccc(NC(=O)C(C)Oc2ccc3cc(C4CCC(=O)NC4=O)c(C)nc3c2)cc1Cl (centres unmarked)

Given back:
1. 0.316 to 3.16 µM
2. > 3.16 µM
3. 0.316 to 3.16 µM
4. 0.316 to 3.16 µM
5. > 3.16 µM
